Where do the numbers come from? From ChEMBL document CHEMBL4406806.

molecular target: 5-hydroxytryptamine receptor 2B (Homo sapiens, UniProt P41595); assay: Antagonist activity at human 5HT2B receptor expressed in Flp-In-HEK cells co-expressing Gq assessed as inhibition of 5HT-induced stimulation of calcium mobilization preincubated for 10 mins followed by 5HT addition by fluo-4 calcium dye-based FLIPR assay; format: functional, cell-based
Sequence (P41595 whole entry): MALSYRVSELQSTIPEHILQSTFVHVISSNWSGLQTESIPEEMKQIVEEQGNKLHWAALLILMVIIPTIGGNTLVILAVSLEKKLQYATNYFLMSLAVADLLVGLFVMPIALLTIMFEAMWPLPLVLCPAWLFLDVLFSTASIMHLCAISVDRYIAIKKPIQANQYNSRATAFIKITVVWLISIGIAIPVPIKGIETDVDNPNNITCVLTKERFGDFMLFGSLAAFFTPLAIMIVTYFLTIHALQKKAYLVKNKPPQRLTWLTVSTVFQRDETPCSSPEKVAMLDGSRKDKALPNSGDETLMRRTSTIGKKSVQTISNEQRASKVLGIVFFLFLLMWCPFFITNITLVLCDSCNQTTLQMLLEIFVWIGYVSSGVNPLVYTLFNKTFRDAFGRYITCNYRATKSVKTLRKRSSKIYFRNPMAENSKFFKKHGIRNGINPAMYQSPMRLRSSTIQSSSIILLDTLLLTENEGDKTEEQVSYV
quantity: Ki (nM)

Enquiry: Returns the measured Ki for the input molecule. Input: `Nc1nc(NCCCc2ccccc2)nc(-c2cc(Cl)ccc2CO)n1`
Return: 212

a: Nc1nc(NCc2ccc(Oc3ccccc3)cc2)nc(-c2c(F)cccc2CO)n1
b: Nc1nc(NCCc2ccccc2)nc(-c2cc(Cl)ccc2CO)n1
Enquiry: I'm curious whether a or b has the smaller Ki number. Which is it? Selection: enter the item's label.
Return: a
